Give measured AC50 for each item. Keep answers brief.
- TEST_SYSTEM: Muscarinic acetylcholine receptor M2 (Homo sapiens, UniProt P08172); further: assay procedure not described here
- Sequence (P08172 whole entry): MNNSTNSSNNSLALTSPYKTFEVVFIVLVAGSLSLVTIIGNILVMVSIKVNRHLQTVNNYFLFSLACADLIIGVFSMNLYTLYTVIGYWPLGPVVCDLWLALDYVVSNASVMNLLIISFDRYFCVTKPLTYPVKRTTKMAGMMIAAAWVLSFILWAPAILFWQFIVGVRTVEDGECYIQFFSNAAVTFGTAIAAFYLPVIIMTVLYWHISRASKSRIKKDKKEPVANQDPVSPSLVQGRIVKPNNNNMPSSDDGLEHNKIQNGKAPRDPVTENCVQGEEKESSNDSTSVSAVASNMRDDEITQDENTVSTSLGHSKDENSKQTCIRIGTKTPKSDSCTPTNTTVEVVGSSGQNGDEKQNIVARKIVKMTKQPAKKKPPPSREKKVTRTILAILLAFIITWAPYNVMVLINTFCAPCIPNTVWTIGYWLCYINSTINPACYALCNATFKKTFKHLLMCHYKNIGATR
- Type: functional, cell-based

INPUT: // AC50 lookup, key: NC(N)=Nc1nc(CSCCC(N)=NS(N)(=O)=O)cs1
OUTPUT: > 10 µM

INPUT: Could you do the same for COC(=O)C1=C(C)NC(C)=C(C(=O)OCC(C)C)C1c1ccccc1[N+](=O)[O-] (stereo not drawn) , please?
OUTPUT: > 10 µM

INPUT: Could you do the same for CN(C/C=C/c1ccccc1)Cc1cccc2ccccc12 , please?
OUTPUT: > 10 µM

INPUT: Could you do the same for CS(=O)(=O)c1ccc([C@@H](O)[C@@H](CO)NC(=O)C(Cl)Cl)cc1 , please?
OUTPUT: > 30 µM

INPUT: Could you do the same for C[C@H]1C[C@@H]2[C@H]([C@@H](O)C[C@@]3(C)[C@H]2CC[C@]3(O)C(=O)COC(=O)CCC(=O)O)[C@@]2(C)C=CC(=O)C=C12 [METHYLPREDNISOLONE HEMISUCCINATE] , please?
OUTPUT: > 30 µM

INPUT: Could you do the same for COc1ccc(C(=O)N2CCN(c3ccc4c(c3)CCC(=O)N4)CC2)cc1OC , please?
OUTPUT: > 30 µM

INPUT: Could you do the same for Cc1cc(-c2ccccc2)nnc1NCCN1CCOCC1 , please?
OUTPUT: > 10 µM

INPUT: Could you do the same for NC[C@H]1CC[C@H](C(=O)O)CC1 , please?
OUTPUT: > 10 µM
